Recorded IC50 by entry
# Tested System: PI3Kδ (p110δ/p85α) Recombinant Human Protein (Homo sapiens (Human))
# Assay Info: PI3Kδ Scintillation Proximity Assay
# Setup Conditions: 20 μM PIP2, 2 μM ATP, 3.4 nM PI3Kδ, 120 min, room temperature

Solved entries (count: 3):
# Compound, Experimental Readout, Result
rows = [
    ("Cc1ccc([C@](O)(CO)C(F)F)cc1-c1cnc(N)c(C(=O)N[C@@H](C)CO)n1 (single isomer, unassigned) [Example 43]", "IC50", "≤ 500 nM"),
    ("Cc1ccc(C(O)(CO)C(F)F)cc1-c1cnc(N)c(C(=O)NC23CCC(C#N)(C2)C3)n1 (single isomer, unassigned) [Example 48]", "IC50", "≤ 100 nM"),
    ("[2H]C([2H])([2H])c1ccc(C(O)(CO)C(F)(F)F)cc1-c1cnc(N)c(C(=O)NC23CCC(O)(C2)C3)n1 (single isomer, unassigned) [Example 37]", "IC50", "≤ 100 nM"),
]

Enquiry: Hi! What's the reported IC50 for [2H]C([2H])([2H])c1ccc(C(O)(C(O)C(F)(F)F)C(F)(F)F)cc1-c1cnc(N)c(-c2c[nH]nc2C)n1 (stereo not drawn) [Example 20] on PI3Kδ (p110δ/p85α) Recombinant Human Protein (Homo sapiens (Human))?
Return: ≤ 500 nM

Enquiry: Look up IC50 with PI3Kδ (p110δ/p85α) Recombinant Human Protein (Homo sapiens (Human)) for this compound: Cc1ccc([C@](O)(CO)C(F)F)cc1-c1cnc(N)c(C(=O)N2CCC[C@@H]2CO)n1 [Example 45]
Return: < 2000 nM

Enquiry: Give IC50 (PI3Kδ (p110δ/p85α) Recombinant Human Protein (Homo sapiens (Human))) of the following compound: Cc1ccc(C(O)(CO)C(F)F)cc1-c1cnc(N)c(C(=O)NC23CCC(O)(CC2)C3)n1 (single isomer, unassigned) [Example 44]
Return: ≤ 100 nM

* * *

# Tested System: PI3Kδ (p110δ/p85α) Recombinant Human Protein (Homo sapiens (Human))
# Assay Info: PI3Kδ Scintillation Proximity Assay
# Format: biochemical
# Setup Conditions: 20 μM PIP2, 2 μM ATP, 3.4 nM PI3Kδ, 120 min, room temperature
pIC50: −log10 of the molar value.
List of pIC50 values.

Enquiry: What value of measured pIC50 is listed for Cc1ccc(C(O)(CO)C(F)(F)F)cc1-c1cnc(N)c(C2CN(S(=O)(=O)c3ccn(C)n3)C2)n1 (stereo not drawn) ?
Return: ≥ 6.30

Enquiry: For the molecule Cc1ccc(C(O)(CO)C(F)(F)F)cc1-c1cnc(N)c(C(=O)N[C@H](C)CO)n1 (single isomer, unassigned) , what pIC50 is on record?
Return: ≥ 7.00

Enquiry: pIC50 lookup needed for [2H]C([2H])([2H])c1ccc(C(O)(CO)C(F)F)cc1-c1cnc(N)c(C(=O)NC23CCC(C#N)(C2)C3)n1 (single isomer, unassigned) , thanks.
Return: ≥ 7.00

Enquiry: // pIC50 lookup, key: [2H]C([2H])([2H])c1ccc(C(O)(CO)C(F)(F)F)cc1-c1cnc(N)c(C(=O)NC2CC(C#N)C2)n1 (single isomer, unassigned)
Return: ≥ 7.00

Enquiry: I have this molecule here, Cc1ccc(C(O)(CO)C(F)(F)F)cc1-c1cnc(N)c(C(F)(F)F)n1 (single isomer, unassigned) , and I need its recorded pIC50.
Return: ≥ 6.30

Enquiry: Looking for the measured pIC50 of [2H]C([2H])([2H])c1ccc(C(O)(CO)C(F)(F)F)cc1-c1cnc(N)c(-c2cnc(C)o2)n1 (single isomer, unassigned) , can you help?
Return: ≥ 7.00

* * *

# Tested System: PI3Kδ (p110δ/p85α) Recombinant Human Protein (Homo sapiens (Human), UniProt O00329)
# Sequence (O00329 whole entry): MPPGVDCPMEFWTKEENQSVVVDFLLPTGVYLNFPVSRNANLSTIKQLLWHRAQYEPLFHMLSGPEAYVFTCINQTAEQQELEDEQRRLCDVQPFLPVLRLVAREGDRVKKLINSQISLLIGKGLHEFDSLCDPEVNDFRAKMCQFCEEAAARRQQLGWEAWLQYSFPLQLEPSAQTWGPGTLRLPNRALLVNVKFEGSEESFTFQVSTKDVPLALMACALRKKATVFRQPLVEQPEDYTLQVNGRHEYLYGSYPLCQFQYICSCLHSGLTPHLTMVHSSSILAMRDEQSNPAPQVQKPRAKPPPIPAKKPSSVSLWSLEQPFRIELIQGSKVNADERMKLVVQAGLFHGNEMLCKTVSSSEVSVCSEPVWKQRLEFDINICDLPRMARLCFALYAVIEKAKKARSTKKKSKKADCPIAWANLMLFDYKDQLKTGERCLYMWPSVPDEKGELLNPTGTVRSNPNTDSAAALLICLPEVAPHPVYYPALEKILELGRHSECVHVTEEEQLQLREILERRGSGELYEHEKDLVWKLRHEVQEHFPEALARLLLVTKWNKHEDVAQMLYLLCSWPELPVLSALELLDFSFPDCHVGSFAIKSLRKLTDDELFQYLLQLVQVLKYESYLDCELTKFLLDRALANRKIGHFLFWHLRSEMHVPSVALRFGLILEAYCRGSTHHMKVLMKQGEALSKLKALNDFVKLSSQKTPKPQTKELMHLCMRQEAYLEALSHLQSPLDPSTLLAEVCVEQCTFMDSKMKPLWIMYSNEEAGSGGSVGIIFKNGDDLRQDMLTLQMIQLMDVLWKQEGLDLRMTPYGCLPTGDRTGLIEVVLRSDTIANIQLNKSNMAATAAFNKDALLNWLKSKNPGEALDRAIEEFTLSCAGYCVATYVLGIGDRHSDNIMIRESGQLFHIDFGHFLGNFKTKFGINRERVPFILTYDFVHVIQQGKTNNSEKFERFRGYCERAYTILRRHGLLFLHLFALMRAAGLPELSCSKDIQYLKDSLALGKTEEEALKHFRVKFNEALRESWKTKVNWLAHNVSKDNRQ
# Sequence (P27986 whole entry partner): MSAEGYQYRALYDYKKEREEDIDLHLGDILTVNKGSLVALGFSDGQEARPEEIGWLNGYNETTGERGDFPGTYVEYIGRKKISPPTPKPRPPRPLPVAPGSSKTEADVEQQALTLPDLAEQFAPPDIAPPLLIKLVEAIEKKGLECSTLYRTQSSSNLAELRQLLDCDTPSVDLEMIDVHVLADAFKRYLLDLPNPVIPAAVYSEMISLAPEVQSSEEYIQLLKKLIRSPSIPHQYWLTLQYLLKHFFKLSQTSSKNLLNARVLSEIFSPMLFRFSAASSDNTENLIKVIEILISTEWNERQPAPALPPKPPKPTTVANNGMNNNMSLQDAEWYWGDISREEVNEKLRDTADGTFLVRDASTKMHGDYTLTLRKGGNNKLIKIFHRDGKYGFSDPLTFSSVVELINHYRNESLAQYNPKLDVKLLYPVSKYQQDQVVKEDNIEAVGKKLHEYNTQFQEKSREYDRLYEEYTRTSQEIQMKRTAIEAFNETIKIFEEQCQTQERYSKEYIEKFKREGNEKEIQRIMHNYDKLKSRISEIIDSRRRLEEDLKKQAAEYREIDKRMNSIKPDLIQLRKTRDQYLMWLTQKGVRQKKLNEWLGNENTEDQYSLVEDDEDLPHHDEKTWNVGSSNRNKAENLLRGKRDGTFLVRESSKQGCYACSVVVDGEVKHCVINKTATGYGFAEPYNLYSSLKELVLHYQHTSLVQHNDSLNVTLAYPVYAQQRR
# Assay Info: PI3Kδ Scintillation Proximity Assay
# Setup Conditions: 20 μM PIP2, 2 μM ATP, 3.4 nM PI3Kδ, 120 min, room temperature
// reported IC50 per item

These solved cases illustrate the format of a correct answer.
# Compound, Experimental Readout, Result
rows = [
    ("Cc1ccc(C(O)(CO)C(F)(F)F)cc1-c1cnc(N)c(C2CC(C(=O)N3CC(O)C3)C2)n1 (single isomer, unassigned) [Example 24]", "IC50", "≤ 500 nM"),
    ("[2H]C([2H])([2H])c1ccc(C(O)(CO)C(F)(F)F)cc1-c1cnc(N)c(C(=O)N[C@]2(C)C[C@H](O)C2)n1 (single isomer, unassigned) [Example 30]", "IC50", "≤ 100 nM"),
]

Enquiry: Entry under review: Cc1ccc(C(O)(CO)C(F)F)cc1-c1cnc(N)c(C(=O)NC2CCOCC2)n1 (single isomer, unassigned) [Example 42] . Reported IC50?
Return: ≤ 100 nM
